molecular target: T1, human CD3 (human, UniProt P07766 23-207; P04234 22-171; P09693 23-182); experiment: FACS on Jurkat cells
T1 construct: whole, on cells; also called hCD3; CD3 on Jurkat cells
T1 sequence (P07766 23-207, chain 1 of 3): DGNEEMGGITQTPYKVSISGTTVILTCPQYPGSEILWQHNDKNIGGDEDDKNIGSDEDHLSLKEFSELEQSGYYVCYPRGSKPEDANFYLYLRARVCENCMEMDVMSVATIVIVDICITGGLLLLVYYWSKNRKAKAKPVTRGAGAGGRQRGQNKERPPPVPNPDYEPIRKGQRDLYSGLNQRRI
T1 sequence (P04234 22-171, chain 2 of 3): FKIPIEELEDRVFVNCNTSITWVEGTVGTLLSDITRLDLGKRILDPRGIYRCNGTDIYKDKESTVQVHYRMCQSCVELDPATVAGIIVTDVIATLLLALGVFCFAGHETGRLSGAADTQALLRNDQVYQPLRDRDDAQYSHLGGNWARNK
T1 sequence (P09693 23-182, chain 3 of 3): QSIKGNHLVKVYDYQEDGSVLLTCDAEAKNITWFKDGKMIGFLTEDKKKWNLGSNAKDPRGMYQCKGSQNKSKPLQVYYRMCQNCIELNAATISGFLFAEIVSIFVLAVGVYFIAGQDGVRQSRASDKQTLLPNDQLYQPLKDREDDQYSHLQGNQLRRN
VALUE_TYPE: EC50

The following binders have reported results that may help.
- BINDER: "hu147E2-L3H2 (antibody, V domains shown, humanized 147E11E2; also called hu14E2-L3H2) VH: EVQLVQSGAEVKKPGSSVKVSCKASGYTFTSYWMHWVRQAPGQGLEWMGNINPSNGATNYNEKFKSRVTITADKSTSTAYMELSSLRSEDTAVYYCARDRSSQYYFDYWGQGTTVTVSS VL: DIQMTQSPSSLSASVGDRVTITCKSSQSLLNSRSRKNYLAWYQQKPGKAPKLLIYWASTRESGVPSRFSGSGSGTDFTLTISSLQPEDFATYYCTQSYTLRTFGGGTKVEIK"
  EC50: "0.891 nM"
- BINDER: "ch147E11E2 (antibody, V domains shown) VH: QVQLQQPGTELVKPGTSVKLSCKASGYTFTSYWMHWVKQRPGQGLEWIGNINPSNGATNYNEKFKSKATLTVDKSSSTAYMQLSSLTSEDSAVYYCARDRSSQYYFDYWGQGTTLTVSS VL: DIVMSQSPSSLAVSAGEKVTMSCKSSQSLLNSRSRKNYLAWYQQKPGQSPKLLIYWASTRESGVPDRFTGSGSGTDFTLTISSVQAEDLAVYYCTQSYTLRTFGGGTKLEIK"
  EC50: "0.649 nM"
- BINDER: "hu147E2-L3H4 (antibody, V domains shown, humanized 147E11E2; also called hu14E2-L3H4) VH: EVQLVQSGAEVKKPGSSVKVSCKASGYTFTSYWMHWVRQAPGQGLEWIGNINPSNGATNYNEKFKSRATLTVDKSTSTAYMELSSLRSEDTAVYYCARDRSSQYYFDYWGQGTTVTVSS VL: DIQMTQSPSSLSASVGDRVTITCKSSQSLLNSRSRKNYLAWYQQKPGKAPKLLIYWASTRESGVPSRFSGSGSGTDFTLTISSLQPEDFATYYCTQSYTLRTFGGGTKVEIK"
  EC50: "0.671 nM"

Let us move to another entry and its EC50.
Lookup: Fill in the blank: the reported EC50 of hu147E2-L3H3 (antibody, V domains shown, humanized 147E11E2; also called hu14E2-L3H3) VH: EVQLVQSGAEVKKPGSSVKVSCKASGYTFTSYWMHWVRQAPGQGLEWMGNINPSNGATNYNEKFKSRVTLTVDKSTSTAYMELSSLRSEDTAVYYCARDRSSQYYFDYWGQGTTVTVSS VL: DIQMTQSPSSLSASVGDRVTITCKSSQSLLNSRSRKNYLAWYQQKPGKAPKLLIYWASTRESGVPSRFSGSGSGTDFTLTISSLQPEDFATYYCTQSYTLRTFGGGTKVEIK is ____.
Found: 0.659 nM
